Data credit: ChEMBL document CHEMBL1143440

molecular target: Neuronal acetylcholine receptor; alpha4/beta2 (Rattus norvegicus) (UniProt P09483+P12390); test: Displacement of [3H]nicotine from alpha4beta2 nAChR in rat brain membrane at 100 nM; format: cell membranes
assay.readout: Activity (%)
Value expressed in %; do not type the unit.

Note to self: Activity recorded for "CN1CCC[C@H]1c1ccc[n+](CCCC#Cc2cc(C#CCCC[n+]3cccc([C@@H]4CCCN4C)c3)c(C#CCCC[n+]3cccc([C@@H]4CCCN4C)c3)cc2C#CCCC[n+]2cccc([C@@H]3CCCN3C)c2)c1" was 38

GET /value?item= "Cc1cc[n+](CCCC#Cc2cc(C#CCCC[n+]3ccc(C)c(C)c3)c(C#CCCC[n+]3ccc(C)c(C)c3)cc2C#CCCC[n+]2ccc(C)c(C)c2)cc1C" &field=Activity returns 9.8

The value of Activity measured for the compound "c1c(CCCCC[n+]2ccc3c(c2)CCCC3)c(CCCCC[n+]2ccc3c(c2)CCCC3)cc(CCCCC[n+]2ccc3c(c2)CCCC3)c1CCCCC[n+]1ccc2c(c1)CCCC2" turned out to be 0.9

// recorded Activity for "c1ccc(Cc2ccc[n+](CCCCCc3cc(CCCCC[n+]4cccc(Cc5ccccc5)c4)c(CCCCC[n+]4cccc(Cc5ccccc5)c4)cc3CCCCC[n+]3cccc(Cc4ccccc4)c3)c2)cc1" : 13

Field Activity (entry "OCCCc1ccc[n+](CCCCCc2cc(CCCCC[n+]3cccc(CCCO)c3)c(CCCCC[n+]3cccc(CCCO)c3)cc2CCCCC[n+]2cccc(CCCO)c2)c1" ) reads 9.6

Consider "c1ccc2c[n+](CCCCCc3cc(CCCCC[n+]4ccc5ccccc5c4)c(CCCCC[n+]4ccc5ccccc5c4)cc3CCCCC[n+]3ccc4ccccc4c3)ccc2c1" . Its measured Activity is 6.5

====

target: Neuronal acetylcholine receptor subunit alpha-7 (Rattus norvegicus); assay: Displacement of [3H]methyllycaconitine from alpha7 nAChR in rat brain membrane
Sequence (Q05941 whole entry): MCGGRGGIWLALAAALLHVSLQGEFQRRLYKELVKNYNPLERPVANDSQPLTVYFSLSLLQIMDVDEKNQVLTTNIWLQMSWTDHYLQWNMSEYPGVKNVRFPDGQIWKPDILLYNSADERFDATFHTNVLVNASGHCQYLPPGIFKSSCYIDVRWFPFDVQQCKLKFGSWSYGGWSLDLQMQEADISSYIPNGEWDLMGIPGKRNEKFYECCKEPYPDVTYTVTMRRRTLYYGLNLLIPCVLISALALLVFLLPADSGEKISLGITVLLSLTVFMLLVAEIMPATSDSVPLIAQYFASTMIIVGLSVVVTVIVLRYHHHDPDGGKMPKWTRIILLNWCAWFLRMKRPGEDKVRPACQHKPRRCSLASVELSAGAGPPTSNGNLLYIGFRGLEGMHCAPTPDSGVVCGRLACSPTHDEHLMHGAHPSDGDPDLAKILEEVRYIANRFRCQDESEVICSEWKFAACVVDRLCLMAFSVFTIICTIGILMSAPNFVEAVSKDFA
assay.readout: Ki

So for "Cc1ccc[n+](CCCCCCCCCCCC[n+]2cccc(C)c2)c1" , the logged Ki turned out to be > 100 µM

====

molecular target: Neuronal acetylcholine receptor subunit alpha-7 (Rattus norvegicus) (UniProt Q05941); assay: Displacement of [3H]methyllycaconitine from alpha7 nAChR in rat brain membrane at 100 nM; assay type: cell membranes
Sequence (Q05941 whole entry): as above
Provide the recorded Activity for the entries that follow.
Give your result in % as a bare value.

For record "Cc1ccc[n+](CCCC#Cc2cc(C#CCCC[n+]3cccc(C)c3)cc(C#CCCC[n+]3cccc(C)c3)c2)c1" the listed Activity is 0

Kindly note the recorded Activity for "Cc1cc[n+](CCCCCc2cc(CCCCC[n+]3ccc(C)c(C)c3)c(CCCCC[n+]3ccc(C)c(C)c3)cc2CCCCC[n+]2ccc(C)c(C)c2)cc1C" , which is 18

Documented Activity of "Cc1cc(C)c[n+](CCCC#Cc2cc(C#CCCC[n+]3cc(C)cc(C)c3)c(C#CCCC[n+]3cc(C)cc(C)c3)cc2C#CCCC[n+]2cc(C)cc(C)c2)c1" : 3.9

The reported Activity of the compound "Cc1cc[n+](CCCC#Cc2cc(C#CCCC[n+]3ccc(C)cc3)c(C#CCCC[n+]3ccc(C)cc3)cc2C#CCCC[n+]2ccc(C)cc2)cc1" was 3

Looking up "Cc1ccc[n+](CCCCCc2cc(CCCCC[n+]3cccc(C)c3)c(CCCCC[n+]3cccc(C)c3)cc2CCCCC[n+]2cccc(C)c2)c1" , I found its Activity recorded as 12

Activity in this record for "CN1CCC[C@H]1c1ccc[n+](CCCC#Cc2cc(C#CCCC[n+]3cccc([C@@H]4CCCN4C)c3)c(C#CCCC[n+]3cccc([C@@H]4CCCN4C)c3)cc2C#CCCC[n+]2cccc([C@@H]3CCCN3C)c2)c1" : 15

Kindly note the recorded Activity for "OCCCc1ccc[n+](CCCC#Cc2cc(C#CCCC[n+]3cccc(CCCO)c3)c(C#CCCC[n+]3cccc(CCCO)c3)cc2C#CCCC[n+]2cccc(CCCO)c2)c1" , which is 5.7

So for "c1c(CCCCC[n+]2ccc3c(c2)CCCC3)c(CCCCC[n+]2ccc3c(c2)CCCC3)cc(CCCCC[n+]2ccc3c(c2)CCCC3)c1CCCCC[n+]1ccc2c(c1)CCCC2" , the logged Activity turned out to be 27

Just so you know, measured Activity for "Cc1cc(C)c[n+](CCCCCc2cc(CCCCC[n+]3cc(C)cc(C)c3)c(CCCCC[n+]3cc(C)cc(C)c3)cc2CCCCC[n+]2cc(C)cc(C)c2)c1" came out at 15
